Kindly supply the reported TGI values for the records listed here.
Tested on: SNB-78 CNS
Test: NCI tumour cell line growth inhibition, 48 h

Which measured TGI belongs to c1ccc2c(c1)[nH]c1c2nc2ccccn21 , tested on SNB-78 CNS? > 100 µM

Checklist item: TGI tested on SNB-78 CNS, entry Clc1ccc2c(NCCCCCCNc3ccnc4cc(Cl)ccc34)ccnc2c1 , value? 3.87 µM

Reported TGI for SNB-78 CNS, given COc1cc(C)c2c(c1)CN1CN2Cc2cc(OC)cc(C)c21 ? > 100 µM

Short answer please: TGI, SNB-78 CNS, entry [N-]=[N+]=CC(=O)CCC(N)C(=O)O (configuration not stated) > 74.4 µM

Identify the measured TGI of Cc1cccc(C)c1NC(=O)C(=O)Cc1nc2ccccc2s1 for SNB-78 CNS. > 100 µM

For the record CCOc1ccc(NC(=O)/C(CC(=O)c2c[n+](=O)c3ccccc3n2[O-])=N\OCCCc2ccccc2)cc1 , what value of TGI is listed for SNB-78 CNS? > 100 µM

Reported TGI for SNB-78 CNS, given O=c1c(Cc2ccccc2)c(O)cc2n1CCC2 ? > 100 µM

Item: COC(=O)C1C=CCC2CCCCC21N1CCCC1 (configuration not stated) Test system: SNB-78 CNS Read-out: TGI Value: ? > 100 µM

Lab note: need TGI with SNB-78 CNS for entry Cc1c(C)c([N+](=O)[O-])c2c(c1N)C(=O)c1ccccc1C2=O , please look it up. > 100 µM

Hello, I am looking for reported TGI with SNB-78 CNS for O=c1[nH]ccc(CNC23CC4CC(CC(C4)C2)C3)c1O . Could you help? > 100 µM

Recall the recorded TGI for Cc1nnc2n1N=C(c1ccccc1)C(c1ccccc1)S2 (configuration not stated) with SNB-78 CNS and state it. > 100 µM

What measured TGI is associated with Cc1cc(=O)[nH]c(NNC(C#N)c2cccc([N+](=O)[O-])c2)n1 (configuration not stated) on SNB-78 CNS? > 100 µM

----------
Tested on: RPMI-8226 leukemia
Test: NCI tumour cell line growth inhibition, 48 h
endpoint_label: TGI

For the molecule CCC[CH2][Sn-]([CH2]CCC)([CH2]CCC)[O]C(=O)C(C)C , what TGI is on record? 0.366 µM

Could you tell me which TGI is on file for NC(=O)[C@H](Cc1ccc(O)cc1)Nc1c(O)c2c(c(O)c1Cl)C(=O)C=CC2=O ? 7 µM

Give the measured TGI of O=C(Nc1ccc(Cl)cc1C(F)(F)F)C(=O)Nn1c(=S)[nH]c2ccccc2c1=O . > 100 µM

Need TGI, item C=C1C(=O)O[C@@H]2/C=C(/C)[C@@H](OC(C)=O)C/C=C(\C)C(O)[C@@H](OC(=O)/C(C)=C\C)C12 (stereo not given in full) 60.7 µM

# TGI lookup, item COC1(CC[C@@H](C)COC2OC(CO)C(O)C(O)C2O)OC2C[C@H]3[C@@H]4CC[C@H]5C[C@@H](OC6OC(CO)C(OC7OC(CO)C(O)C(O)C7O)C(O)C6OC6OC(C)C(O)C(O)C6O)[C@H](O)C[C@]5(C)[C@H]4CC[C@]3(C)C2[C@@H]1C (stereo not given in full) 4.58 µM

----------
Tested on: HT29 colon
Experiment: NCI tumour cell line growth inhibition, 48 h
endpoint_label: GI50

Which measured GI50 value corresponds to Cn1c(COC(=O)NCCn2ccnc2)nc2c(N3CCOCC3)nc(-c3ccccc3)nc21 ? 0.372 µM

What does the data say about its GI50? Entry: O=S(=O)(NC1=NCCN1C(=S)SN1CCn2c1nsc2=S)c1ccc(Cl)cc1 7.34 µM

Any idea what GI50 was measured for O=C1C(=O)c2c(nc3ccc(C(F)(F)F)cn23)-c2ccccc21 ? 0.923 µM

# input molecule: COc1ccc(-n2cc(-c3ccc(OC)c(OC)c3)[nH]c2=O)cc1 ; wanted: its GI50 > 100 µM

Give the measured GI50 of O=c1[nH]c(C2CCCN2)nc2c1oc1ccc(Cl)cc12 (stereo not given) . > 100 µM

Field request: GI50 | item: Cc1ccc(/C(=N/Nc2ccc([N+](=O)[O-])cc2)Sc2cc(Cl)c(C)cc2S(N)(=O)=O)cc1 1.31 µM

May I ask what GI50 has been recorded for COc1ccc2c(c1)C(=O)c1c-2c(OCCCN(C)C)nc2cc(Br)ccc12 ? 10.5 µM

Which GI50 value belongs to O=C1c2cccc3cccc(c23)C(=O)N1CCCCCN1CCN(CCN=c2cc3n(-c4ccc(Cl)cc4)c4ccccc4nc-3cc2Nc2ccc(Cl)cc2)CC1 ? 9.13 µM

Please give the measured GI50 for this molecule: O=C(Nc1n[nH]c2cc(-c3cc(F)ccc3F)ccc12)C1CC1 9.42 µM

Name the reported GI50 value associated with the molecule CC(C)(C)C[C@H]1N[C@@H](C(=O)NC2CCC(O)CC2)[C@H](c2cccc(Cl)c2F)[C@@]12C(=O)Nc1cc(Cl)ccc12 (stereo not given in full) 4.34 µM

Record request: GI50 value, item COc1cc(/C=N/NC(=O)c2cnn3c2NC(c2ccccc2)C3)ccc1OC1CCCC1 (stereo not given) 0.467 µM

GET /values?readout=GI50&item= Nc1cc2c3c(cccc3c1)C(=O)N(CCN1CCCC1)C2=O 3.11 µM

Could you tell me which GI50 is on file for O=c1c(Cc2ccc3c(c2)OCO3)nnc2sc(-c3cc(F)c(Cl)cc3Cl)nn12 ? 35.2 µM

# GI50 lookup, item CN1CCN(C2=NC(=O)/C(=C\c3ccc(N(C)C)cc3)S2)CC1 39.5 µM

Please report the recorded GI50 for COc1ccc2[nH]c(C(=O)N3CCN(C(=O)OCc4ccc5c(Cl)cc(Cl)c(O)c5n4)CC3)cc2c1 . 1.08 µM

----------
Tested on: 786-0 renal
Experiment: NCI tumour cell line growth inhibition, 48 h; in the data active means GI50 below about 0.43 µM; inactive means the rest
Respond using exactly one of the listed classes: 1 for active, -1 for inactive

Call for entry Cn1c(COC(=O)NCCc2ccccn2)nc2c(N3CCOCC3)nc(Cl)nc21 : -1

Call for entry Cc1ccc(/C(=N/Nc2ccc([N+](=O)[O-])cc2)Sc2cc(Cl)c(C)cc2S(N)(=O)=O)cc1 : -1

Hi, do you know how COC1=CC(c2ccc[nH]2)=N/C1=C\c1[nH]c(C)c(C(=O)CCCCCCCCC(=O)O[C@H]2CC[C@H]3C4CCc5cc(O)ccc5C4CC[C@]23C)c1C (stereo partly drawn) came out in this test? -1

Each compound tested received a call. Report the one for O=C(Nc1sc2c(c1C(=O)O)CCCC2)c1ccco1 . -1

For OCc1ccc(N(Cc2ccc(F)cc2)Cc2ccc(F)cc2)cc1Cl , which call appears in the assay record? -1

Tell me the recorded outcome of this test for COc1ccc(-n2cc(-c3ccc(OC)c(OC)c3)[nH]c2=O)cc1 . -1

Assay result, entry C/C(=N/NC(=S)Nc1ccccc1)c1nc2ccc(Cl)cc2[nH]1 — outcome? 1

So what was the verdict on CCOC(=O)Nc1ccc2nc(-c3cscn3)[nH]c2c1 in this test? -1

Query: recorded result category for CCC[CH2][Sn-]([CH2]CCC)([CH2]CCC)[O]C(=O)C(C)C in this test 1

# outcome recorded in this test, key = CC1(C)CC(C)(C)c2cc(NC(=S)Nc3ccc([N+](=O)[O-])cc3)ccc2S1 -1

Hi team, can someone confirm the assay call for CN(C)CCC(=O)Nc1ccc(-n2cc(-c3cccc(NC(=S)Nc4cccc(-c5cn(-c6ccc(NC(=O)CCN(C)C)cc6)nn5)c4)c3)nn2)cc1 ? -1

Hi, sorry to bother you, what did the test record for C[C@@H]1C[C@@H]([C@H](O)CC2CC(=O)NC(=O)C2)C(=O)[C@@H](C)C1 ? 1

What is the recorded call for this compound in the test? COc1cc2c(cc1OCCNC(=O)/C=C1\C[C@H]3C=Nc4cc(OCc5ccccc5)c(OC)cc4C(=O)N3C1)N=C[C@@H]1CCCN1C2=O -1

----------
System: NCI-H226 lung
Experiment: NCI tumour cell line growth inhibition, 48 h; in the data active = GI50 below about 0.43 µM; inactive = the rest
Answer with one of the outcomes given here: y = active, n = inactive

Returns: the outcome recorded for CCOC(=O)NC(=S)N(CC(=O)c1cc(OC)c(OC)c(OC)c1)c1ccc(Cl)cc1 in this assay. n

Name the outcome recorded for CC(C)(C)C[C@H]1N[C@@H](C(=O)NC2CCC(O)CC2)[C@H](c2cccc(Cl)c2F)[C@@]12C(=O)Nc1cc(Cl)ccc12 (stereo not given in full) in the assay. y

Kindly provide the recorded test outcome for the following compound: O=C1c2cccc3cccc(c23)C(=O)N1CCCCCN1CCN(CCN=c2cc3n(-c4ccc(Cl)cc4)c4ccccc4nc-3cc2Nc2ccc(Cl)cc2)CC1 n

What did the test return for O=C1c2cc3c(cc2-c2c1c1cc(F)c(F)cc1c(=O)n2CCCn1ccnc1)OCO3 ? y

Could you check what this test reported for C[C@@H]1C[C@@H]([C@H](O)CC2CC(=O)NC(=O)C2)C(=O)[C@@H](C)C1 ? y

What outcome does the record of this test show for COc1cc(N2C(=O)[C@H](Cl)C2c2ccc(SC)cc2)cc(OC)c1OC (stereo not given in full) ? y

Per the assay record, what outcome was assigned to CCN(CC)C(=S)SSC(C)C ? n

Fill in: this test's call for COc1ccc(-n2c(=S)sc3c(Cl)nc(C)nc32)c(OC)c1 is ___ n

Query: recorded result category for CCCCCCCC/C=C/CCCCCCCC1=NC(C)(C)CN1C(C)(C)CO in this test n

Hi, sorry to bother you, what did the test record for COc1ccc(-n2cc(-c3ccc(OC)c(OC)c3)[nH]c2=O)cc1 ? n
